Quick reference for growth among some molecules
Tested on: SR leukemia
Assay Summary: NCI-60 one-dose screen, 48 h (100 = growth as untreated, 0 = no growth, -100 = all killed)
Experimental Context: 10 µM unless noted
The panel holds about 83,000 compounds, 20% with a hit somewhere; the sample as a whole holds those more often. Calls of active or inactive are those of the source. Rule for the calls: active = growth percent below 10; inactive = the rest.
Recorded Metric: growth

In [3]: df
Out[3]:
                                    molecule  recorded_metric       measurement
 0  CCCCSc1ccc2nc(-c3ccc(OCCCN=C(N)N)cc3)cn2c1           growth  85.8% (inactive)
 1  OCCN1CCN(c2cc(-c3cccc(OC(F)(F)F)c3)nc3ccc(N4CCCC4)cc23)CC1           growth    3.39% (active)
 2  CCCCC1COc2cccc3c2N1C=C/C3=C\C(=O)N(C)c1cccc(Cl)c1 (stereo unspecified)           growth  94.9% (inactive)
 3  CN1CCCc2cc(/C=C3\SC(=S)N(C(Cc4ccc(O)cc4)C(=O)O)C3=O)ccc21 (stereo unspecified)           growth   105% (inactive)
 4  O=C1/C(=C/c2cn(-c3ccccc3)nc2-c2ccccc2)SC(=S)N1c1ccc(Cl)cc1           growth  39.5% (inactive)
 5             Nc1ccc(-c2ccc(N)c(Br)c2)cc1Br           growth  20.7% (inactive)
 6  COc1ccc(C(c2cc(OC)c(OC)c(OC)c2)n2ccnc2)cc1O (stereo unspecified)           growth    8.48% (active)
 7  COc1ccc(/C=C2\COc3ccc(O)c(O)c3C2=O)c(OC)c1OC           growth    9.47% (active)
 8  Cc1ccc(-c2nc3nc(-c4ccc(Br)cc4)nc(N4CCCNCC4)c3o2)cc1           growth   -32.2% (active)
 9  N=c1c2c(-c3ccccc3)c(-c3ccccc3)oc2ncn1NC(=O)c1cccnc1           growth  77.7% (inactive)
10  C#CCOCC1CN(C)C(=O)O1 (stereo unspecified)           growth  69.7% (inactive)
